These data points were gathered from paper doi:10.1101/2023.01.08.523168.

Target: T1, NanoLuc luciferase (NLuc)-ENL YEATS fusion protein (human, UniProt Q03111 1-148)
T1 sequence (looked up): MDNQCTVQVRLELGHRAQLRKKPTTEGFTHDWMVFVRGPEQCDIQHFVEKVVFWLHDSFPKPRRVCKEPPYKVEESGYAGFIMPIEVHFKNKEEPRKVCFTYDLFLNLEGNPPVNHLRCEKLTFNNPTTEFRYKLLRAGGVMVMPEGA
Assay: FRET or BRET
pIC50: −log10 of the molar value. *: point of attachment. 2Furoyl = O=C(c1ccco1)*
READOUT TYPE: pIC50

> print(dat)
                             binder  readout.type  reported.measurement
1  Ac-VYCYK(2Furoyl)-NH2 [tENL-S1f]         pIC50                  5.38
